# remaining binding at 1 µM annotations
Molecular target: TNK1 (Homo sapiens, UniProt Q13470)
Construct: purchased Eurofins DiscoverX KINOMEscan (scanTK)
Sequence (Q13470 1-666): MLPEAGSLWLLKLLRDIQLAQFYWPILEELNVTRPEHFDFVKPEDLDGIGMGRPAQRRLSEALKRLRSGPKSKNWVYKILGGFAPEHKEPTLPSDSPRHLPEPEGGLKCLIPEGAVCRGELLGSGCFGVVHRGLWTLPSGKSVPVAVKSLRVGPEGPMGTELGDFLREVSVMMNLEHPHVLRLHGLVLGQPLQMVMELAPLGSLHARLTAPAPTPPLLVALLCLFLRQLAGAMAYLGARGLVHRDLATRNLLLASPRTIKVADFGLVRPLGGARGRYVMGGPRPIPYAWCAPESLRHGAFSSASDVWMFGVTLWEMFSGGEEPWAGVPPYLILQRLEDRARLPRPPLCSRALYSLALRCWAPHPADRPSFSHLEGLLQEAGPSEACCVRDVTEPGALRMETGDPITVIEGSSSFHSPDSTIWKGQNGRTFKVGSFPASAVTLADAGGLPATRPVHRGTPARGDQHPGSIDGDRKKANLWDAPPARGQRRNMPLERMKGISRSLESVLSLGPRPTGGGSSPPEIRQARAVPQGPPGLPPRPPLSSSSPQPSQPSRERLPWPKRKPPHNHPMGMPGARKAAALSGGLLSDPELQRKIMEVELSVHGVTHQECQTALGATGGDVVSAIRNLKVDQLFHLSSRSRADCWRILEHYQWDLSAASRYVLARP
Assay: KINOMEscan ScanTK
Type: binding
Conditions: read-out: %Control @1000nM

{"compound": "CNC(=O)c1cnc(S(C)(=O)=O)nc1N1CCCC(n2nc(-c3ccc(Oc4ccccc4)cc3)c3c(N)ncnc32)C1 (centres unmarked)", "remaining binding at 1 µM": "97%"}
{"compound": "CCOC(=O)c1cnc(S(C)(=O)=O)nc1N1CCC[C@@H](n2nc(-c3ccc(Oc4ccccc4)cc3)c3c(N)ncnc32)C1", "remaining binding at 1 µM": "81%"}
{"compound": "C=CC(=O)N1CCC[C@@H](n2nc(-c3ccc(Oc4ccccc4)cc3)c3c(N)ncnc32)C1 [Compound 1g, Ibrutinib, reference compound]", "remaining binding at 1 µM": "93%"}
{"compound": "COC(=O)c1cnc(S(C)(=O)=O)nc1N1CCCC(n2nc(-c3ccc(Oc4ccccc4)cc3)c3c(N)ncnc32)C1 (centres unmarked)", "remaining binding at 1 µM": "88%"}
{"compound": "Cc1cnc(S(C)(=O)=O)nc1N1CCCC(n2nc(-c3ccc(Oc4ccccc4)cc3)c3c(N)ncnc32)C1 (centres unmarked)", "remaining binding at 1 µM": "91%"}

###

molecular target: RET(V804M) (Homo sapiens, UniProt P07949, V804M); construct: purchased Eurofins DiscoverX KINOMEscan (scanTK); experiment: KINOMEscan ScanTK; assay type: binding; conditions: read-out: %Control @1000nM
Sequence (P07949 29-1114 V804M): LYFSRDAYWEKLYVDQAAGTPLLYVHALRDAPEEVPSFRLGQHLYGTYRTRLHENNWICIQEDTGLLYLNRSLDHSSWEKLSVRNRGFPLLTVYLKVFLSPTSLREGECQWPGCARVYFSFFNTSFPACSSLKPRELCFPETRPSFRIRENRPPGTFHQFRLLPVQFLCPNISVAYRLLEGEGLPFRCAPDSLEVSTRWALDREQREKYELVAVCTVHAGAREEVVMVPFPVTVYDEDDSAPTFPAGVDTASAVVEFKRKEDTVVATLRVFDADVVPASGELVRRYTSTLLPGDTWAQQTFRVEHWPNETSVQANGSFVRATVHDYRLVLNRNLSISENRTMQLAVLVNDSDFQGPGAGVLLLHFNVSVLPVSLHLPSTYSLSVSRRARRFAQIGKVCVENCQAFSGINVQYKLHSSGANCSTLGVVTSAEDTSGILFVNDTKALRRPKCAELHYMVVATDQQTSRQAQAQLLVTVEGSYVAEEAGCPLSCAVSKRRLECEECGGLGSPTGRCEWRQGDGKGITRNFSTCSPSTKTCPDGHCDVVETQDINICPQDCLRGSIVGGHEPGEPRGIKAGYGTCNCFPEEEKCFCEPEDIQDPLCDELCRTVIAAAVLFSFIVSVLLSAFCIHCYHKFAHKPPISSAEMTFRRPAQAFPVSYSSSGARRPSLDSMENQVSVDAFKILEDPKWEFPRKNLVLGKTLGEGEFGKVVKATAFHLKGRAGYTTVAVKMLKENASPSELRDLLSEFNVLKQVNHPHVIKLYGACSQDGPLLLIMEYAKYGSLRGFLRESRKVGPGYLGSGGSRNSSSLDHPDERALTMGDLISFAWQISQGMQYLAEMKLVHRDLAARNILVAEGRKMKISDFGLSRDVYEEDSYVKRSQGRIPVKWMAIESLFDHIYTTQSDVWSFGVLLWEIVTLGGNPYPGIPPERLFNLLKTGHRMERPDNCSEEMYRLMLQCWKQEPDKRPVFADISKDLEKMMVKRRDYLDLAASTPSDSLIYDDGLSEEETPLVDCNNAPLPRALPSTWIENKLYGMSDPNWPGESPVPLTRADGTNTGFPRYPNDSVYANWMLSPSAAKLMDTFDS

{"compound": "Cc1cnc(S(C)(=O)=O)nc1N1CCCC(n2nc(-c3ccc(Oc4ccccc4)cc3)c3c(N)ncnc32)C1 (centres unmarked) [Compound 8a]", "result_units": "%", "remaining binding at 1 µM": 93}
{"compound": "CNC(=O)c1cnc(S(C)(=O)=O)nc1N1CCCC(n2nc(-c3ccc(Oc4ccccc4)cc3)c3c(N)ncnc32)C1 (centres unmarked) [Compound 8d]", "result_units": "%", "remaining binding at 1 µM": 100}
{"compound": "C=CC(=O)N1CCC[C@@H](n2nc(-c3ccc(Oc4ccccc4)cc3)c3c(N)ncnc32)C1 [Compound 1g, Ibrutinib, reference compound]", "result_units": "%", "remaining binding at 1 µM": 100}
{"compound": "COC(=O)c1cnc(S(C)(=O)=O)nc1N1CCCC(n2nc(-c3ccc(Oc4ccccc4)cc3)c3c(N)ncnc32)C1 (centres unmarked) [Compound 8b]", "result_units": "%", "remaining binding at 1 µM": 90}
{"compound": "CCOC(=O)c1cnc(S(C)(=O)=O)nc1N1CCC[C@@H](n2nc(-c3ccc(Oc4ccccc4)cc3)c3c(N)ncnc32)C1 [Compound 8c]", "result_units": "%", "remaining binding at 1 µM": 100}
